Can you tell me No. of B7 Alleles Crossbound for the items I'm about to list?
system: B7-supertype molecules (B*0702, B*3501, B*5101, B*5301, B*5401); experiment: B7-supertype cross-reactive binding; design: species or system human; conditions: of five B7-supertype alleles tested
Where no end group is shown, it is not given here.
Numbers only.

Check out these entries, answers already filled in.
• MPYGCLLDHVI [Her2/neu.801.I11] = 5
• FPSGAMPNQI [Her2/neu.701.F1] = 3
• MPNQAQMRILI [Her2/neu.706.I11] = 4
• FPIKWMAL [Her2/neu.884.F1] = 4
• FPLAPSEGI [Her2/neu.1073.F1I9] = 4
• FPSGVKPDI [Her2/neu.600.F1I9] = 3
• FPAEQRASPI [Her2/neu.642.F1I10] = 3
• FPYDGIPA [Her2/neu.921.F1] = 4
• CPAEQRASPL [Her2/neu.642] = 1
• FPTHDPSPI [Her2/neu.1101.F1I9] = 4

Please report No. of B7 Alleles Crossbound for every entry that follows.
1. FPAEQRASPL [Her2/neu.642.F1]
2. FPLPAARPI [Her2/neu.1155.F1I9]
3. FPYDGIPI [Her2/neu.921.F1I8]
4. FPSETDGYI [Her2/neu.1120.F1I9]
5. FPKANKEII [Her2/neu.760.F1I9]
6. CPSGVKPDLSY [Her2/neu.600]
7. FPGKNGVI [Her2/neu.1174.F1I8]

3
4
5
4
3
1
3

----------
Field: DR3 binding data. Provide a value for each of the compounds that follow.
molecular target: DRB1*0301 (DR3) (Homo sapiens, UniProt P01903+P01911, A100K/A102G/A103R/A169T/F55Y/I96L/K41T/L162R/M171V/P40S/Q125H/Q178H/Q39Y/R42S/S66N/T106N/T262R/W38E/Y61H); experiment: HLA class II peptide binding assay, purified HLA; details: Table XXa, DR 3a motif peptides; unit not given
Sequence (P01903 26-254 limits assumed, other chains not shown): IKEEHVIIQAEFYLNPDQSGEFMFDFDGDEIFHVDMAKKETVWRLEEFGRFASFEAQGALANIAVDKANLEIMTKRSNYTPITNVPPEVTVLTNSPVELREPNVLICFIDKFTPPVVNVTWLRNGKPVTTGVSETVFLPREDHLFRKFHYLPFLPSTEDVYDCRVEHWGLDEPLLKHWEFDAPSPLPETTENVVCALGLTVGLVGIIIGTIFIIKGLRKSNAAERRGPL
Answers are plain numbers.

Look over these answered cases.
- CSCC[C@H](NC(=O)[C@H](CC(=O)O)NC(=O)[C@H](CC(=O)O)NC(=O)[C@H](CC(=O)O)NC(=O)[C@H](CCC(=O)O)NC(=O)[C@H](CC(C)C)NC(=O)[C@H](CC(C)C)NC(=O)[C@H](CO)NC(=O)[C@H](CCCNC(=N)N)NC(=O)[C@@H](N)Cc1ccc(O)cc1)C(=O)NCC(=O)N[C@@H](CC(=O)O)C(=O)N[C@@H](CC(C)C)C(=O)N[C@H](C(=O)N[C@@H](CC(=O)O)C(=O)O)C(C)C: 0.0630
- CC(C)C[C@H](NC(=O)[C@H](CC(=O)O)NC(=O)[C@H](CCCNC(=N)N)NC(=O)[C@H](Cc1c[nH]cn1)NC(=O)[C@@H](NC(=O)[C@H](CC(C)C)NC(=O)[C@H](CCCNC(=N)N)NC(=O)[C@@H](N)C(C)C)C(C)C)C(=O)N[C@@H](C)C(=O)N[C@@H](C)C(=O)N[C@@H](CCCNC(=N)N)C(=O)N[C@@H](CC(N)=O)C(=O)N[C@H](C(=O)N[C@@H](CC(C)C)C(=O)N[C@H](C(=O)O)C(C)C)C(C)C: 0.3400

Continue with the compound presented below.
Fill blank: measured DR3 binding data of the compound CC(C)C[C@H](NC(=O)[C@H](CS)NC(=O)[C@H](Cc1c[nH]cn1)NC(=O)[C@H](CCCNC(=N)N)NC(=O)[C@H](C)NC(=O)[C@H](CC(N)=O)NC(=O)[C@@H](NC(=O)[C@H](Cc1ccc(O)cc1)NC(=O)[C@H](CCC(=O)O)NC(=O)[C@H](CCCNC(=N)N)NC(=O)[C@@H]1CCCN1C(=O)[C@H](CC(C)C)NC(=O)CNC(=O)[C@H](CCC(N)=O)NC(=O)[C@@H](N)CC(C)C)C(C)C)C(=O)O is ____. −0.0027

----------
molecular target: DRB5*0101 (DR2w2β2) (Homo sapiens, UniProt P01903+Q30154); assay: HLA class II peptide binding assay, purified HLA; conditions: Table XIX, DR supermotif peptides; unit not given
Record form. Attribute: DR2w2B2 binding data. Fill in for each entry.

Recorded results for 2 compounds are shown here.
* CSCC[C@H](NC(=O)[C@@H](NC(=O)[C@H](Cc1ccc(O)cc1)NC(=O)[C@H](C)NC(=O)[C@H](CCC(=O)O)NC(=O)[C@@H](N)CC(=O)O)C(C)C)C(=O)N[C@@H](C)C(=O)NCC(=O)N[C@H](C(=O)NCC(=O)N[C@@H](CO)C(=O)N1CCC[C@H]1C(=O)N[C@@H](Cc1ccc(O)cc1)C(=O)N[C@H](C(=O)N[C@@H](CO)C(=O)O)C(C)C)C(C)C | 0.0240
* CC[C@H](C)[C@H](NC(=O)[C@H](CCCNC(=N)N)NC(=O)CNC(=O)[C@H](CCCNC(=N)N)NC(=O)[C@@H](NC(=O)[C@@H](NC(=O)[C@H](CCC(N)=O)NC(=O)[C@H](CC(C)C)NC(=O)[C@H](CC(N)=O)NC(=O)[C@H](CCC(N)=O)NC(=O)[C@H](Cc1ccccc1)NC(=O)[C@@H](NC(=O)[C@H](CO)NC(=O)[C@@H](N)CC(C)C)C(C)C)C(C)C)[C@@H](C)CC)C(=O)N[C@@H](CC(C)C)C(=O)O | 0.0740

Please report the recorded DR2w2B2 binding data for CC(C)C[C@H](NC(=O)[C@H](CC(=O)O)NC(=O)[C@H](CCCNC(=N)N)NC(=O)[C@H](Cc1c[nH]cn1)NC(=O)[C@@H](NC(=O)[C@H](CC(C)C)NC(=O)[C@H](CCCNC(=N)N)NC(=O)[C@@H](N)C(C)C)C(C)C)C(=O)N[C@@H](C)C(=O)N[C@@H](C)C(=O)N[C@@H](CCCNC(=N)N)C(=O)N[C@@H](CC(N)=O)C(=O)N[C@H](C(=O)N[C@@H](CC(C)C)C(=O)N[C@H](C(=O)O)C(C)C)C(C)C . 0.0033

----------
biological target: DRB1*1101 (DR5w11) (Homo sapiens, UniProt P01903+P01911, A100R/A169T/A87E/I96F/K41T/L162R/M171V/P40S/Q125H/Q178H/Q39Y/Q99D/R42S/S66Y/T262R/V115G/W38E); test: HLA class II peptide binding assay, purified HLA; conditions: Table XIX, DR supermotif peptides; unit not given
Sequence (P01903 26-254 limits assumed, other chains not shown): as above
Answer each item with its documented DR5w11 binding data.
One number for each entry.

The cases that follow already have their DR5w11 binding data on record.
• CC(C)C[C@H](NC(=O)[C@H](CO)NC(=O)[C@H](C)NC(=O)[C@H](CC(N)=O)NC(=O)[C@@H](NC(=O)[C@@H]1CCCN1C(=O)[C@H](CC(C)C)NC(=O)[C@H](Cc1ccc(O)cc1)NC(=O)[C@@H](NC(=O)[C@@H](N)CC(C)C)[C@@H](C)O)[C@@H](C)O)C(=O)N[C@@H](CO)C(=O)N[C@@H](Cc1ccccc1)C(=O)N[C@@H](CC(C)C)C(=O)N[C@@H](CCC(N)=O)C(=O)N[C@@H](CC(=O)O)C(=O)O = 0.0041
• CC[C@H](C)[C@H](NC(=O)[C@H](CO)NC(=O)[C@H](CCC(=O)O)NC(=O)[C@H](CC(C)C)NC(=O)[C@H](C)NC(=O)[C@H](CCSC)NC(=O)[C@H](Cc1c[nH]c2ccccc12)NC(=O)[C@H](CCCCN)NC(=O)[C@@H](NC(=O)[C@@H]1CCCN1C(=O)[C@@H](NC(=O)[C@@H](N)CCCCN)C(C)C)[C@@H](C)CC)C(=O)N[C@@H](CC(C)C)C(=O)N[C@@H](CCCNC(=N)N)C(=O)N[C@@H](CCCNC(=N)N)C(=O)O = 0.0073
• CC[C@H](C)[C@H](NC(=O)CNC(=O)[C@H](Cc1ccccc1)NC(=O)[C@@H](NC(=O)[C@@H](NC(=O)CNC(=O)[C@H](CC(C)C)NC(=O)[C@@H](N)C(C)C)C(C)C)C(C)C)C(=O)N[C@@H](CC(C)C)C(=O)N[C@H](C(=O)N[C@@H](CCCCN)C(=O)N[C@@H](CCCNC(=N)N)C(=O)N[C@@H](CCCNC(=N)N)C(=O)N[C@@H](CCC(N)=O)C(=O)N[C@@H](CCC(N)=O)C(=O)O)[C@@H](C)CC = 0.4700

Continue with the next compound.
Value lookup for DR5w11 binding data; key = CC[C@H](C)[C@H](NC(=O)[C@H](C)NC(=O)[C@@H](NC(=O)[C@@H]1CCCN1C(=O)[C@@H](NC(=O)[C@H](CCCCN)NC(=O)[C@@H](NC(=O)[C@H](CC(N)=O)NC(=O)[C@H](CCC(=O)O)NC(=O)CN)C(C)C)[C@@H](C)CC)C(C)C)C(=O)N[C@@H](CCCCN)C(=O)N[C@H](C(=O)N[C@@H](CC(C)C)C(=O)N[C@@H](CCCNC(=N)N)C(=O)N[C@@H](CCC(=O)O)C(=O)O)C(C)C −0.0005
